Experiment: KontRASt-01 (NCT04699188) clinical pharmacokinetics
Format: in vivo, human
Conditions: human, plasma, oral; 200 mg BID; steady state; patients; read-out: AUC0-12, ss, GeoMean (CV %)
Description: FIG. 15: PK and target occupancy profiles of JDQ443 RD 200 mg BID. […] Error bars indicate standard deviation for PK profile at each timepoint. […]
Measured Endpoint: AUC(0-t) (ng·h/mL)
Answers are plain numbers, in ng·h/mL.

Record request: AUC(0-t) value, item C=CC(=O)N1CC2(CC(n3nc(-c4ccc5c(cnn5C)c4)c(-c4c(Cl)c(C)cc5[nH]ncc45)c3C)C2)C1 (single isomer, unassigned)
49400

###

assay: KontRASt-01 (NCT04699188) clinical pharmacokinetics; assay type: in vivo, human; conditions: human, plasma, oral, 200 mg, 200 mg BID; steady state; patients; read-out: Tmax, median (min-max)
Measured Endpoint: Tmax (h)
One number for each entry, in h.

Record request: Tmax value, item C=CC(=O)N1CC2(CC(n3nc(-c4ccc5c(cnn5C)c4)c(-c4c(Cl)c(C)cc5[nH]ncc45)c3C)C2)C1 (single isomer, unassigned)
3.2

###

Test: KontRASt-01 (NCT04699188) clinical pharmacokinetics
Assay type: in vivo, human
Details: human, plasma, oral; 200 mg BID; steady state; patients; read-out: Cmax, ss, GeoMean (CV %)
Method: FIG. 15: PK and target occupancy profiles of JDQ443 RD 200 mg BID. […] Error bars indicate standard deviation for PK profile at each timepoint. […]
Measured Endpoint: Cmax (ng/mL)
Give bare numbers, in ng/mL.

Record request: Cmax value, item C=CC(=O)N1CC2(CC(n3nc(-c4ccc5c(cnn5C)c4)c(-c4c(Cl)c(C)cc5[nH]ncc45)c3C)C2)C1 (single isomer, unassigned)
5950

Origin of values: patent US20240366567A1
